tested on: HOP-92; assay: NCI tumour cell line growth inhibition, 48 h
Activity calls are given as the source filed them. Cut-off read from the data, not from the text of the source: active = GI50 up to about 1.1 µM and inactive = higher.
Choose the fitting class; nothing outside active, inactive is accepted.

Query :: // outcome(item) with item = N=C(N)NCCNC(=N)N
Result :: inactive

Query :: Now this one: CCCCOCn1c(=O)[nH]c(=O)c2ccccc21
Result :: inactive

Query :: Now this one: O=[N+]([O-])c1ccccc1C1N2CCCCC2[C@@H]2c3[nH]c4ccccc4c3CCN12 (some centres not stated)
Result :: inactive

Query :: Now this one: C1CSCCSCCS1
Result :: inactive

Query :: Now this one: O=c1[nH]c(=O)n(COC(CO)CO)cc1-c1ccccc1
Result :: inactive

Query :: Now this one: O=C1CCC2CCOc3ccc(O)c1c32 (configuration not stated)
Result :: inactive

Query :: Now this one: CCC(NC(C)c1ccccc1)C(=O)c1ccc(OCc2ccccc2)c(OCc2ccccc2)c1 (configuration not stated)
Result :: inactive

Query :: Now this one: CC1=NN(c2cccc(Cl)c2)C2(SCC(=O)N2c2nc3ccccc3s2)/C1=C\c1cccs1 (configuration not stated)
Result :: inactive

Query :: Now this one: CN(C)CCn1c(=O)c2ccc(NCCNCCO)c3c(=O)c4ccccc4n(c1=O)c23
Result :: active

Query :: Now this one: NC(=O)C#CC#CC#CCO
Result :: inactive

Query :: Now this one: c1ccncc1
Result :: inactive

Query :: Now this one: Cn1c(N2CCCC2)c(C=O)c(=O)n(C)c1=O
Result :: inactive
